assay: inhibition of 3D7 malaria parasite growth – strain 3D7 (AID 2306);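 also: 0% = DMSO wells and 100% = chloroquine plus artemisinin control wells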; conditions: P. falciparum 3D7 erythrocytic growth, LDH absorbance, 72 h; at 2 µM; stronger effect = higher value
Please go through the items and note down their growth inhibition.
One number for each entry, in %.

These solved cases illustrate the format of a correct answer.
COMPOUND: O=C(/C=C/c1cccc(Br)c1)NCCCCCN1CCC(c2c[nH]c3ccccc23)CC1
EXPERIMENTAL ENDPOINT: growth inhibition
NUMERIC VALUE: 100
--
COMPOUND: CS(=O)(=O)n1c(CN2CCN(c3ncc(C(F)(F)F)cc3Cl)CC2)nc2ccccc21
EXPERIMENTAL ENDPOINT: growth inhibition
NUMERIC VALUE: 83
--
COMPOUND: O=C(NC1CCN(c2ccnc3ccccc23)C1)c1ccc(OC(F)(F)F)cc1 (configuration not stated)
EXPERIMENTAL ENDPOINT: growth inhibition
NUMERIC VALUE: 89
--
COMPOUND: CCN(CC)Cc1ccc2c(=O)cc(CCc3cccc(F)c3F)n(CC(=O)N(Cc3ccc(-c4ccc(C(F)(F)F)cc4)cc3)C(C)C)c2c1
EXPERIMENTAL ENDPOINT: growth inhibition
NUMERIC VALUE: 102
--
COMPOUND: CC(C)c1ccc(OCC(O)CN(CCN2CCOCC2)C(=O)Nc2ccc(Br)cc2)cc1 (configuration not stated)
EXPERIMENTAL ENDPOINT: growth inhibition
NUMERIC VALUE: 98
--
COMPOUND: CCC(CC)NCc1c(O)ccc2c(CNC(CC)CC)c(O)ccc12
EXPERIMENTAL ENDPOINT: growth inhibition
NUMERIC VALUE: 100
--
COMPOUND: COc1c(CNCCCCCCNCc2cc(Cl)c3ccccc3c2OC)cc(Cl)c2ccccc12
EXPERIMENTAL ENDPOINT: growth inhibition
NUMERIC VALUE: 96
--
COMPOUND: O=C(NCC1CC1)C1CCN(C(c2ccc(Cl)cc2)c2ccc(Cl)cc2)CC1
EXPERIMENTAL ENDPOINT: growth inhibition
NUMERIC VALUE: 99
--
COMPOUND: COc1ccc(N2CCN(C(CNC(=O)C3CCCCC3)c3ccc4c(c3)OCO4)CC2)cc1 (configuration not stated)
EXPERIMENTAL ENDPOINT: growth inhibition
NUMERIC VALUE: 92
--
COMPOUND: O=C(N[C@@H](Cc1ccccc1)C(=O)NCCN1CCOCC1)c1ccc(O)c(-c2ccc(Cl)c(Cl)c2)c1
EXPERIMENTAL ENDPOINT: growth inhibition
NUMERIC VALUE: 97

Go through the list and state growth inhibition for each entry.
1. COC(=O)c1cccc(CN(CCC(O)(C(F)(F)F)C(F)(F)F)C(=O)CC2CCCC2)c1
2. Cc1cc(NN=Cc2cccc([N+](=O)[O-])c2)c2cc(F)ccc2n1
3. N#Cc1ccc(/C=C/C(=O)NCCCCCN2CCCN(C(=O)Nc3ccc(Cl)c(C(F)(F)F)c3)CC2)cc1
4. Cc1cc(NN=Cc2ccccc2Cl)c2cccc(C)c2n1
5. CO/C(=C\C=C\c1cc2cc(Cl)c(Cl)cc2[nH]1)C(=O)NCCCN1CCN(Cc2ccccc2)CC1
6. Fc1ccc2nc(Nc3nc(-c4ccccn4)cs3)sc2c1
7. CCN1CCN(c2cc(C)c3cc(NC(=O)c4ccc(N(CC)CC)cc4)ccc3n2)CC1
8. CC(C)Oc1cc2c(cc1NS(=O)(=O)c1ccc(-c3ccc(Cl)s3)cc1F)CCN(C)CC2

1: 98; 2: 102; 3: 98; 4: 97; 5: 94; 6: 102; 7: 95; 8: 99

Go through the list and state growth inhibition for each entry.
1. O=C(NC1CCCCC1)N(Cc1ccc(-c2ccc(CNC3CCCC3)cc2)cc1)C1CCN(Cc2ccccc2)CC1
2. COc1ccc(-c2ccc(NC(=O)c3ccc(C#N)cc3)cc2)cc1CN1CCNCC1
3. FC(F)(F)c1ccc2nc(-c3ccc(-c4cccc(CNCc5cnn(-c6ccccc6)n5)c4)cc3)[nH]c2c1
4. Cc1noc(C)c1-c1cccc(CNCc2ccc(-c3ccc(-c4nc5ccc(C(F)(F)F)cc5[nH]4)s3)cc2)c1
5. CCc1c(C)nc(-n2nc(C)cc2NC(=O)c2cccc3ccccc23)[nH]c1=O
6. Oc1ccc(CCNc2nc(NCCCOc3ccccc3-c3ccncc3)nc(N3CCNCC3)n2)cc1
7. CN1CCN(CCCN(Cc2csc(-c3ccc(CNCc4ccccc4)cc3)n2)C(=O)c2cc(F)cc(F)c2)CC1
8. Cc1cccc(CNc2nc(C)cc(N[C@@H](Cc3ccccc3)C(=O)NCc3cccc(F)c3)n2)c1

1: 99; 2: 96; 3: 99; 4: 102; 5: 98; 6: 96; 7: 97; 8: 101

Go through the list and state growth inhibition for each entry.
1. CC(C)N(Cc1cnc(N)c(C#N)n1)c1ccc(Cl)c(Cl)c1
2. c1cc(CNC2Cc3ccccc3C2)cc(-c2cnc(N3CCNCC3)nc2)c1
3. CCCN(CCC)CCCNc1ccc(C(=O)Nc2ccc(C)c(F)c2)cc1[N+](=O)[O-]
4. COc1ccc(CNC2CCN(C)CC2)cc1-c1ccc(S(=O)(=O)NCc2ccccc2)s1
5. Cc1noc(C)c1-c1ccc2c(Nc3ccc([N+](=O)[O-])cc3)c(C(N)=O)cnc2c1
6. O=C(/C=C/c1ccc(Cl)c(Cl)c1)NCCCCCN1CCC(NC(=O)Nc2cc(Cl)nc(Cl)c2)CC1
7. Fc1ccc2nc(-c3cccc(-c4ccc(CN5CCN(c6cnccn6)CC5)cc4)c3)[nH]c2c1

[97, 93, 100, 101, 100, 102, 96]

Data provenance is PubChem BioAssay.
